Species on record: Rattus norvegicus
assayRemarks: In vitro inhibition of [3H]dopamine uptake in rat corpus striatum homogenates.
Assay type: functional
observable: IC50 (nM)
Enter your answer as a number in nM; do not include the unit.

Returns the measured IC50 for the input compound. Input: CN1CCN(C2CC(c3ccccc3)c3ccc(Cl)cc32)CC1(C)C (single isomer, unassigned; (-))
390

Another compound to look at: CC(C)N1CCN(C2CC(c3ccc(F)cc3)c3ccc(Cl)cc32)CC1(C)C (single isomer, unassigned; (-))
1300

Another compound to look at: CC(C)N1CCN(C2CC(c3ccc(F)cc3)c3ccc(Cl)cc32)CC1(C)C (single isomer, unassigned; (+))
20

Another compound to look at: CC1(C)CN(C2CC(c3ccc(F)cc3)c3ccc(Cl)cc32)CCN1 (stereo in doubt; (-)-41)
400

Another compound to look at: CN1CCN(C2CC(c3ccccc3)c3ccc(Cl)cc32)CC1(C)C (stereo in doubt; (+)-38)
7.5

Another compound to look at: CC1(C)CN(C2CC(c3ccc(F)cc3)c3ccc(Cl)cc32)CCN1 (single isomer, unassigned; (+))
29
